# credit: the supplement of paper PMC10307832

- Test system: HARA
- methodNotes: relative viability (nuclei count vs DMSO), 5 days (fraction); higher = more cells survive
- conditionSet: first compound 0.2 µM
reportedProperty: relative viability
Number only, no unit.

I am curious: what relative viability value has been reported for COCC1(CO)C(=O)C2CCN1CC2 (stereo not given) [PRIMA-1MET] + COc1cccc2cc(-c3nc([C@H]4CC[C@H](C(=O)O)CC4)n4ncnc(N)c34)[nH]c12 [OSI-027] (partner 0.5 µM) ?
0.463

What about COCC1(CO)C(=O)C2CCN1CC2 (stereo not given) [PRIMA-1MET] + Cc1cc(Nc2cc(N3CCN(C)CC3)nc(Sc3ccc(NC(=O)C4CC4)cc3)n2)n[nH]1 [Tozasertib] (partner 0.1 µM) ?
0.119

What about COCC1(CO)C(=O)C2CCN1CC2 (stereo not given) [PRIMA-1MET] + CC(=O)Nc1cccc(-n2c(=O)n(C3CC3)c(=O)c3c(Nc4ccc(I)cc4F)n(C)c(=O)c(C)c32)c1 [Trametinib] (partner 0.02 µM) ?
0.403

What about COCC1(CO)C(=O)C2CCN1CC2 (stereo not given) [PRIMA-1MET] + CS(=O)(=O)N1CCN(Cc2cc3nc(-c4cccc5[nH]ncc45)nc(N4CCOCC4)c3s2)CC1 [Pictilisib] (partner 1 µM) ?
0.374

What about COCC1(CO)C(=O)C2CCN1CC2 (stereo not given) [PRIMA-1MET] + CC(=O)c1c(C)c2cnc(Nc3ccc(N4CCNCC4)cn3)nc2n(C2CCCC2)c1=O [Palbociclib] (partner 0.5 µM) ?
0.252

###

- System: NCI-H596
- methodNotes: relative viability (nuclei count vs DMSO), 5 days (fraction); higher = more cells survive
- conditionSet: first compound 0.01 µM
reportedProperty: relative viability
Number only, no unit.

I am curious: what relative viability value has been reported for O=c1cc(N2CCOCC2)oc2c(-c3cccc4c3sc3ccccc34)cccc12 + O=C(c1cc(Cc2n[nH]c(=O)c3ccccc23)ccc1F)N1CCN(C(=O)C2CC2)CC1 [Olaparib] (partner 8 µM) ?
0.675

What about CCN(CC)CCCCNc1ncc2cc(-c3cc(OC)cc(OC)c3)c(NC(=O)NC(C)(C)C)nc2n1 + CC1(C)CCC(c2ccc(Cl)cc2)=C(CN2CCN(c3ccc(C(=O)NS(=O)(=O)c4ccc(N[C@H](CCN5CCOCC5)CSc5ccccc5)c(S(=O)(=O)C(F)(F)F)c4)cc3)CC2)C1 [Navitoclax] (partner 0.5 µM) ?
0.912

What about O=c1cc(N2CCOCC2)oc2c(-c3cccc4c3sc3ccccc34)cccc12 + CC(C)C[C@H](NC(=O)[C@H](Cc1ccccc1)NC(=O)c1cnccn1)B(O)O [Bortezomib] (partner 0.002 µM) ?
0.897

What about CCN(CC)CCCCNc1ncc2cc(-c3cc(OC)cc(OC)c3)c(NC(=O)NC(C)(C)C)nc2n1 + CCNC(=O)c1noc(-c2cc(C(C)C)c(O)cc2O)c1-c1ccc(CN2CCOCC2)cc1 [Luminespib] (partner 0.01 µM) ?
1.03

What about O=c1cc(N2CCOCC2)oc2c(-c3cccc4c3sc3ccccc34)cccc12 + O=C(CCCCCCC(=O)Nc1ccccc1)NO [Vorinostat] (partner 1 µM) ?
0.564

What about O=c1cc(N2CCOCC2)oc2c(-c3cccc4c3sc3ccccc34)cccc12 + COc1cccc2cc(-c3nc([C@H]4CC[C@H](C(=O)O)CC4)n4ncnc(N)c34)[nH]c12 [OSI-027] (partner 0.5 µM) ?
0.738

What about O=c1cc(N2CCOCC2)oc2c(-c3cccc4c3sc3ccccc34)cccc12 + CC(=O)Nc1cccc(-n2c(=O)n(C3CC3)c(=O)c3c(Nc4ccc(I)cc4F)n(C)c(=O)c(C)c32)c1 [Trametinib] (partner 0.02 µM) ?
0.758

What about CCN(CC)CCCCNc1ncc2cc(-c3cc(OC)cc(OC)c3)c(NC(=O)NC(C)(C)C)nc2n1 + COc1cc2c(Oc3ccc(NC(=O)C4(C(=O)Nc5ccc(F)cc5)CC4)cc3F)ccnc2cc1OCCCN1CCOCC1 [Foretinib] (partner 0.25 µM) ?
0.852

What about CCN(CC)CCCCNc1ncc2cc(-c3cc(OC)cc(OC)c3)c(NC(=O)NC(C)(C)C)nc2n1 + O=C(CCCCCCC(=O)Nc1ccccc1)NO [Vorinostat] (partner 1 µM) ?
0.658
